Catalogue of IC50 values
Target Or System: PDK1 (Homo sapiens (Human), UniProt O15530)
Sequence (O15530 51-359): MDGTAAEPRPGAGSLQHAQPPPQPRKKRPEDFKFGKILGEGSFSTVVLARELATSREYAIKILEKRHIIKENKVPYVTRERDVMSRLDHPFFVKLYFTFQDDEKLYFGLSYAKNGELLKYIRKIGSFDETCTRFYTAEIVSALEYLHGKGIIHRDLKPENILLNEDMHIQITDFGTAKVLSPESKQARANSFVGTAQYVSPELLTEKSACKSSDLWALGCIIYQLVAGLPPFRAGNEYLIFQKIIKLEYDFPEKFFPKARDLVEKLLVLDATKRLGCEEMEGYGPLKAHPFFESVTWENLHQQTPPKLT
Test Method Notes: PDK1 kinase assay (coupled PDK1/AKT/FAM-crosstide assay, IMAP fluorescence polarization)
Assay type: biochemical
Condition Notes: inhibition of PDK1 in vitro

Recorded results for 4 compounds are shown here.
chem_smiles=C[C@H](NC(=O)c1cc(C#N)cnc1NCc1ccc(-c2cnc(N)c(F)c2)cc1)c1ccc(F)cc1 measure_name=IC50 reported_measurement="< 100 nM"
chem_smiles=CNc1ncc2cc(O[C@H](C)CNc3ncc(C#N)nc3C(=O)N[C@@H](C)c3ccc(F)c(F)c3)ccc2n1 measure_name=IC50 reported_measurement="100 to 1000 nM"
chem_smiles=C[C@H](NC(=O)c1cccnc1NCc1ccc(-c2cn(C3CCC3)c3ncnc(N)c23)s1)c1ccc(F)cc1 measure_name=IC50 reported_measurement="100 to 1000 nM"
chem_smiles=CNc1ncc2cc(C#CCNc3ncc(C#N)cc3C(=O)N[C@@H](C)c3ccc(F)cc3)ccc2n1 measure_name=IC50 reported_measurement="< 100 nM"

Here is another compound to look at.
### Prompt GET IC50 | system: PDK1 (Homo sapiens (Human), UniProt O15530) | item: "Nc1n[nH]c2ncc(-c3ccc(CNc4ncc(C(F)(F)F)cc4C(=O)NCc4ccc(Cl)c(F)c4)cc3)cc12"
### Response < 100 nM

---

Target Or System: PDK1 (Homo sapiens (Human))
Test Method Notes: PDK1 kinase assay (coupled PDK1/AKT/FAM-crosstide assay, IMAP fluorescence polarization)
Format: biochemical
Condition Notes: inhibition of phospo-PDK1 in vitro
Counter-ions that a name gives are not always drawn.
Measure Name: IC50

Recorded results for 3 compounds are shown here.
compound="C[C@H](NC(=O)c1nccnc1NCc1ccc(-c2cc3c(N)ncnc3cn2)s1)c1ccc(F)c(F)c1 [Example 3.78, (TFA salt)]" measure_name=IC50 reported_measurement="0.1 to 1 µM"
compound="CC(C)(C)NS(=O)(=O)c1cnc(NCc2ccc(-c3ccc4ncnc(N)c4c3)s2)c(C(=O)NCc2ccc(F)c(F)c2)c1 [Example 8.6.20]" measure_name=IC50 reported_measurement="0.1 to 1 µM"
compound="C[C@H](NC(=O)c1cccnc1NCc1ccc(-c2ccc3ncnc(N4CC(CO)C4)c3c2)s1)c1ccc(F)c(F)c1 [Example 4.38]" measure_name=IC50 reported_measurement="< 0.1 µM"

### Prompt Read the entry CC(C)Oc1cc(CNc2ncccc2C(=O)N(C)c2cccc(F)c2)cc(-c2c[nH]c3ncc(C(=O)NC4CC4)cc23)c1 [Example 4.1.8] and write its reported IC50.
### Response > 5 µM

### Prompt Read the entry Nc1ncnc2ccc(-c3ccc(CNc4ncccc4C(=O)Nc4ccc(F)c(C(F)(F)F)c4)s3)cc12 [Example 3.51, (TFA salt)] and write its reported IC50.
### Response 1 to 5 µM

### Prompt Read the entry C[C@H](NC(=O)c1cccnc1NCc1ccc(-c2cc3c(cn2)nc(N)n3C)s1)c1ccc(F)cc1 [Example 2.23] and write its reported IC50.
### Response 1 to 5 µM

---

Test system: phospho-akt (Thr308) in PC-3 cells
Test Method Notes: Inhibition of phospho-akt (Thr308) in PC-3 cells, MSD phospho-akt 308 ELISA kit
Type: cell-based
Condition Notes: Homo sapiens; inhibition of P308 Akt in PC-3 cells using MSD, 2 hours, no serum; read-out: EC50
pEC50: −log10 of the molar value.
Measure Name: pEC50

Recorded results for 3 molecules are shown here.
chem_smiles=Cc1cc(-c2ccc(CNc3ncc(C#N)cc3C(=O)N[C@@H](C)c3ccc(F)cc3)cc2)cnc1N reported_measurement="> 6.00"
chem_smiles=C[C@H](NC(=O)c1nc(C#N)cnc1NCc1ccc(-c2cnc(N)c(NCCN)n2)cc1)c1ccc(F)c(F)c1 reported_measurement="> 6.00"
chem_smiles=CNc1ccc(-c2ccc(CNc3ncc(C#N)cc3C(=O)N[C@@H](C)c3ccc(F)cc3)cc2)cn1 reported_measurement="5.00 to 6.00"

### Prompt Read the entry "Nc1n[nH]c2ncc(-c3ccc(CNc4ncc(C(F)(F)F)cc4-c4nc5cc(F)ccc5o4)cc3)cc12" and write its reported pEC50.
### Response < 5.00
